Test system: DU-145 prostate
Measurement Protocol: NCI tumour cell line growth inhibition, 48 h
Measured Parameter: TGI

Known TGI results, listed for orientation:
{"Molecule": "CC1CC[C@@]2(OC1)OC1C[C@H]3[C@@H]4CC=C5CC(OC6OC(CO)C(OC7OC(CO)C(O)C(OC8OCC(O)C(O)C8O)C7OC7OC(CO)C(OC8OC(C)C(OC9OC(C)C(O)C(O)C9O)C(O)C8O)C(O)C7O)C(O)C6O)CCC5(C)[C@H]4CCC3(C)C1[C@@H]2C (stereo partly drawn)", "Observed Measurement": "15.9 µM"}
{"Molecule": "COc1cc(C2c3c(ccc4ccccc34)C(=O)C3CCC(=O)N32)cc(OC)c1OC (stereo not drawn)", "Observed Measurement": "> 50 µM"}

Task: Given the molecule CCOC(=O)c1c(C)n(Cc2ccc(Cl)cc2Cl)c2c1cc(O)c1[nH]c3c(c12)CCCC3 , what is its reported TGI?
Output: > 100 µM

----------
Test system: UACC-257 melanoma
Measurement Protocol: NCI tumour cell line growth inhibition, 48 h
Measured Parameter: TGI

Solved entries:
{"Compound": "COc1cc(C2c3c(ccc4ccccc34)C(=O)C3CCC(=O)N32)cc(OC)c1OC (stereo unspecified)", "TGI": "> 50 µM"}
{"Compound": "O=C(COc1ccccc1Cl)N1N=C(c2ccc(Cl)cc2)CC1(O)c1ccccc1 (stereo unspecified)", "TGI": "> 100 µM"}
{"Compound": "CC[O-].CC[O-].O=C([CH-]C(=O)c1ccccc1)CCCCCCCCC(=O)[CH-]C(=O)c1ccccc1.[Ti+4]", "TGI": "> 100 µM"}
{"Compound": "O=C1CC(CC(=O)C2CCCCC2=O)C(=O)N1 (stereo unspecified)", "TGI": "> 100 µM"}

Task: Fill in: TGI of Cn1c(=O)c2c(nc3n(CC(O)CCl)c(=O)ccn23)n(C)c1=O (stereo unspecified) is ___
Output: > 100 µM

Task: Return reported TGI; argument: c1ccc(C2ONC3=NCCN32)cc1 (stereo unspecified)
Output: > 100 µM

----------
Test system: NCI-H522 lung
Measurement Protocol: NCI tumour cell line growth inhibition, 48 h
Measured Parameter: TGI (µM)
Output spec: scalar in µM, unitless text.

Take a look at these entries with their results.
{"Compound": "CCCN1C(=O)NC(=O)C(CC)(N2C(=O)c3c(F)c(F)c(F)c(F)c3C2=O)C1=O (centres undefined)", "TGI (µM)": 3.34}
{"Compound": "Oc1cccc(Nc2nc3ccccc3c3occc23)c1", "TGI (µM)": 28.8}
{"Compound": "C=CCc1c(Cl)nc(Cl)nc1Cl", "TGI (µM)": 0.19}

Please examine the following record next.
Task: Fill in: TGI of CC1CC[C@@]2(OC1)OC1C[C@H]3[C@@H]4CC=C5CC(OC6OC(CO)C(OC7OC(CO)C(O)C(OC8OCC(O)C(O)C8O)C7OC7OC(CO)C(OC8OC(C)C(OC9OC(C)C(O)C(O)C9O)C(O)C8O)C(O)C7O)C(O)C6O)CCC5(C)[C@H]4CCC3(C)C1[C@@H]2C (some centres undefined) is ___
Output: 16.8

----------
Test system: DU-145 prostate
Measurement Protocol: NCI tumour cell line growth inhibition, 48 h
Reported TGI by item:
State just the number; it will be interpreted in µM.

{"Compound String": "Oc1cccc(Nc2nc3ccccc3c3occc23)c1", "Display Unit": "µM", "TGI": 24.6}

Attention now turns to another entry.
Task: Provide value of TGI for this record tested with DU-145 prostate: CC1=C2C(=C[C@@](C)(CO)[C@@H]2OC(=O)N(C)CCN(C)C(=O)OC(C)(C)C)C(=O)[C@](C)(O)C12CC2
Output: 32.4

----------
Test system: ACHN renal
Measurement Protocol: NCI tumour cell line growth inhibition, 48 h
Some molecules, each annotated with its measured GI50.

Some molecules with known GI50 results, for comparison:
{"Molecule": "N#C[Se]Cc1cc(-c2ccccc2)n(-c2ccc(S(N)(=O)=O)cc2)n1", "Observed Measurement": "1.98 µM"}
{"Molecule": "CN1CCC(CNc2cc(C3(C(=O)Nc4cc(C(=O)Nc5ccc(Cl)c(C(F)(F)F)c5)ccc4F)CC3)ncn2)CC1", "Observed Measurement": "2.16 µM"}
{"Molecule": "COc1cc(/C=C/C(=O)/C=C/c2cc(OC)c3c(c2)OCO3)cc2c1OCO2", "Observed Measurement": "7.25 µM"}

Task: Fill blank: measured GI50 of the molecule Cc1ccc2cnc(N)c(C#Cc3cc(C(=O)Nc4ccc(CN5CCN(C)CC5)c(C(F)(F)F)c4)cnc3C)c2c1 is ____.
Output: 0.449 µM

Task: Fill in the blank: the reported GI50 of C/C(=N/O)c1cccc(Nc2cc(-n3nnc4ccccc43)nc3ccccc23)c1 is ____.
Output: 14.2 µM

Task: Data request, read-out GI50, for O=C(NCC1CC1)c1ccc(-c2cccc(C(=O)NC3CC3)c2)cc1
Output: > 25 µM

Task: Need GI50 of COc1ccc(C2=Nn3c(nnc3-c3cc(Cl)cc(Cl)c3Cl)SC2)cc1 , thanks.
Output: 0.859 µM

Task: Would you mind telling me what GI50 value was observed for CC(CO)Nc1cc(-c2[nH]c3cccnc3c2-c2ccc(F)cc2)ccn1 (centres undefined) ?
Output: 3.99 µM

Task: If you can, please state the reported GI50 value of CC1=C([Se]CC(OC(=O)CC[Se]c2ccccc2)C(=O)NC(C)(C)C)C(=O)c2ccccc2C1=O (centres undefined) .
Output: 1.86 µM

----------
Test system: MALME-3M melanoma
Measurement Protocol: NCI tumour cell line growth inhibition, 48 h
Measured Parameter: GI50

Observe how each entry below is paired with its result.
{"Compound": "O=C1/C(=C/c2ccc([N+](=O)[O-])cc2)CN(C(=O)CCN2CCC(=NO)CC2)C/C1=C\\c1ccc([N+](=O)[O-])cc1", "GI50": "2040 nM"}
{"Compound": "CCc1c2c(nc3ccc(OCc4ccc(B(O)O)cc4)cc13)-c1cc3c(c(=O)n1C2)COC(=O)[C@]3(O)CC", "GI50": "57.6 nM"}

Task: Provide the documented GI50 with MALME-3M melanoma as the system for O=C(O)c1nc(NCc2nc3cc(Cl)ccc3o2)n[nH]1
Output: > 100000 nM

Task: // map O=C(c1ccc2ccccc2c1)c1c(C(F)(F)F)n([O-])c2ccc(C(F)(F)F)cc2[n+]1=O to recorded GI50 (system: MALME-3M melanoma)
Output: 1200 nM

Task: Lab note: need GI50 with MALME-3M melanoma for entry CCCN1C(=O)NC(=O)C(CC)(N2C(=O)c3c(F)c(F)c(F)c(F)c3C2=O)C1=O (centres undefined) , please look it up.
Output: 2060 nM

Task: Find the measured GI50: item O=C(Oc1cccnc1)c1cccnc1Nc1ccnc(C(F)(F)F)c1 , target or system MALME-3M melanoma.
Output: 13000 nM

Task: Can you look up GI50 on MALME-3M melanoma for Nc1nc2ccc(-c3nc4ccc5[nH]ncc5c4c4c3CCC4)cc2s1 ?
Output: 202 nM

Task: Query GI50 on MALME-3M melanoma for Cc1ccc2cnc(N)c(C#Cc3cc(C(=O)Nc4ccc(CN5CCN(C)CC5)c(C(F)(F)F)c4)cnc3C)c2c1
Output: 146 nM

Task: GI50 of C=C1CCC2C3(C)COC(C)(C)OC3CCC2(C)C1C/C=C1/C(=O)OCC1OC(C)=O (centres undefined) on MALME-3M melanoma?
Output: 3110 nM

----------
Tested on: KM20L2 colon
Measurement Protocol: NCI tumour cell line growth inhibition, 48 h
Measured Parameter: TGI

{"Molecule": "CCOC(=O)C(C#N)(Cc1c[nH]c2ccccc12)NC(C)=O (centres undefined)", "TGI": "> 100 µM"}

Task: Requested read-out: TGI. Entry: O=C(/C=C/c1ccccc1)Oc1cccc2cccnc12
Output: > 39.3 µM

Task: For the molecule shown here, Cc1c(/C=N/NC(=O)c2ccccc2O)c(=O)n(-c2ccccc2)n1C , give the reported TGI.
Output: > 100 µM

Task: Consider the molecule Cc1cc2c(C)nn(Cc3ccccc3)c2c(C(=O)O)c1C and give its measured TGI.
Output: > 100 µM

Task: Need TGI, item CC(=O)OCc1c2ccccc2c(C)c2c1cc(F)c1ccccc12
Output: 87 µM

Task: Look up TGI: CNC(C)(C)Cc1ccc(Cl)cc1
Output: > 100 µM

Task: Sample O=C1CC(CC(=O)C2CCCCC2=O)C(=O)N1 (centres undefined) — what was its TGI?
Output: > 100 µM

Task: Which TGI reading was recorded for the molecule O=C1C2C3C=C4c5ccccc5N(c5ccccc5)C4(C2C(=O)N1c1ccccc1)C1C(=O)N(c2ccccc2)C(=O)C31 (centres undefined) ?
Output: > 100 µM

Task: Request the reported TGI associated with CC1CC(C)CC(C)C(O)/C(C#N)=C/C=C/CC(C2CCCC2C(=O)O)OC(=O)CC(O)C(C)C1 (centres undefined)
Output: 1.43 µM
